Assay: Pharmacokinetics studies in mice (plasma and brain concentration)
Assay type: in vivo
Conditions: mouse, brain, ip, 20 mg/kg, 20 mg/kg IP, 1 hr, read-out: Tissue Concentration Brain Mean
MEASURE_NAME: concentration at 1 h (ng/g)
Give just the numeric value; ng/g need not be written.

Return reported concentration at 1 h; argument: Brc1ccc2[nH]c(Cn3cncc3-c3ccc[nH]3)cc2c1 [Compound G28]
3520

---

Test: Pharmacokinetics studies in mice (plasma and brain concentration)
Type: in vivo
Conditions: 20 mg/kg IP, 1 hr
MEASURE_NAME: Tissue Concentration Plasma Mean (ng/mL)
Give just the numeric value; ng/mL need not be written.

Return reported Tissue Concentration Plasma Mean; argument: Brc1ccc2[nH]c(Cn3cncc3-c3ccc[nH]3)cc2c1
1410

---

Experiment: Pharmacokinetics studies in mice (plasma and brain concentration)
Format: in vivo
Settings: mouse, 20 mg/kg IP, Brain
MEASURE_NAME: AUC(0-t) (ng·h/mL)
Give just the numeric value; ng·h/mL need not be written.

Return reported AUC(0-t); argument: Brc1ccc2[nH]c(Cn3cncc3-c3ccc[nH]3)cc2c1 [Compound G28]
9870

---

Test: Pharmacokinetics studies in mice (plasma and brain concentration)
Format: in vivo
Settings: mouse, 20 mg/kg IP, Plasma
MEASURE_NAME: AUC(0-inf)
The answer consists of two parts: a number and, after it, its unit.

Return reported AUC(0-inf); argument: Brc1ccc2[nH]c(Cn3cncc3-c3ccc[nH]3)cc2c1 [Compound G28]
2920 ng·h/mL

---

Test: Pharmacokinetics studies in mice (plasma and brain concentration)
Type: in vivo
Conditions: 20 mg/kg IP, 4 hr
MEASURE_NAME: Tissue Concentration Plasma Mean (ng/mL)
Give just the numeric value; ng/mL need not be written.

Return reported Tissue Concentration Plasma Mean; argument: Brc1ccc2[nH]c(Cn3cncc3-c3ccc[nH]3)cc2c1
133

---

Assay: Pharmacokinetics studies in mice (plasma and brain concentration)
Assay type: in vivo
Conditions: mouse, brain/plasma, po, 20 mg/kg, 20 mg/kg PO, 2 Hr, individual mouse M4, read-out: B/P Ratio M4
Protocol: In order to assess the pharmacokinetics of the IDO1 inhibitors of the present application, two inhibitors were administered to mice at 20 mg/kg via PO (G29), or IP (G28). […] Blood samples were collected via cardiac puncture, the mice were perfused with phosphate buffered saline (PBS) and the brains were collected. The blood and brain samples were protein precipitated with ice-cold acetonitrile and the concentration of the test compound in the resulting supernatant was quantified using LC/MS/MS. […]
MEASURE_NAME: Kp at 2 h
The response must contain the number and no unit.

Return reported Kp at 2 h; argument: Fc1ccc2[nH]c(Cn3cncc3-c3ccc[nH]3)cc2c1 [Compound G29]
5.5

---

Experiment: Pharmacokinetics studies in mice (plasma and brain concentration)
Assay type: in vivo
Details: 20 mg/kg IP, 0.5 hr
MEASURE_NAME: Tissue Concentration Plasma Mean

Return reported Tissue Concentration Plasma Mean; argument: Brc1ccc2[nH]c(Cn3cncc3-c3ccc[nH]3)cc2c1 [Compound G28]
1840 ng/mL

---

Experiment: Pharmacokinetics studies in mice (plasma and brain concentration)
Assay type: in vivo
Conditions: mouse, brain, ip, 20 mg/kg, 20 mg/kg IP, 8 hr, read-out: Tissue Concentration Brain Mean
MEASURE_NAME: concentration at 8 h (ng/g)
Give just the numeric value; ng/g need not be written.

Return reported concentration at 8 h; argument: Brc1ccc2[nH]c(Cn3cncc3-c3ccc[nH]3)cc2c1
510

FYI, the data here is from patent US11572354B2.
